Origin of measurements: paper PMC10195017

Molecular target: MALT1 (Mus musculus, UniProt Q2TBA3)
Sequence (Q2TBA3 1-832): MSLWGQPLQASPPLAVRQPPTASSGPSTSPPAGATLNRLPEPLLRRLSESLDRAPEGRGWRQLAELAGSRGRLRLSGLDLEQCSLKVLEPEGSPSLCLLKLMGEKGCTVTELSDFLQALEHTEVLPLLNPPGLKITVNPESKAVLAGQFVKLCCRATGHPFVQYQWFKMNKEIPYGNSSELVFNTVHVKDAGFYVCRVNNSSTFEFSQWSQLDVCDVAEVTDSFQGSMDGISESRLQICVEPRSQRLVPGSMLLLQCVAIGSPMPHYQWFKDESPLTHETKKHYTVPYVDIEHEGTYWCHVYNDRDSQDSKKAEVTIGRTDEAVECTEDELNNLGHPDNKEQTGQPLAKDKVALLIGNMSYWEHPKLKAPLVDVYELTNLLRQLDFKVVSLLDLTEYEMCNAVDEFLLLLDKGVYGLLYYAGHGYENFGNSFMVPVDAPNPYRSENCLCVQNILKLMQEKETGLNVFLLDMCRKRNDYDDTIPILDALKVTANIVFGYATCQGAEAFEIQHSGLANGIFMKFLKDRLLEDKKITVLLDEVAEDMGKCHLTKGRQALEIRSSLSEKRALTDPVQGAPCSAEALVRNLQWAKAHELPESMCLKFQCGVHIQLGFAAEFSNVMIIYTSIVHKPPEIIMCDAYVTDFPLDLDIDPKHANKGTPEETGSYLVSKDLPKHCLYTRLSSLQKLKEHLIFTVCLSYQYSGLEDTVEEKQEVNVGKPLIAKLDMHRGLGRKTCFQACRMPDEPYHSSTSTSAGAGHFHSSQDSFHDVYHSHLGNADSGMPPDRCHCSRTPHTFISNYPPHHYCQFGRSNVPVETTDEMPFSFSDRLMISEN
Assay: MALT1-cleaved CYLD-ct flow cytometry assay in murine CD4+ T cells
Conditions: read-out: IC50 (MALT1-cleaved CYLD-ct); murine splenic CD4+ T cells stimulated with PMA/ionomycin
experimentalReadout: pIC50
Just so you know, pIC50 here is -log10 of the concentration in molar units; reply with that number alone.

Just so you know, measured pIC50 for CN1CCC[C@H](CN2c3ccccc3Sc3ccccc32)C1.Cl [MPT-0308, (S)-mepazine hydrochloride] came out at 5.95
